- Test system: ACHN renal
- EXPERIMENT NOTES: NCI tumour cell line growth inhibition, 48 h
PROPERTY LABEL: TGI

Examples with their reported TGI follow.
COMPOUND | SYSTEM | TGI
COc1cc(OC)c(C(=O)/C=C/c2cccc(OC(C)=O)c2)cc1CC=C(C)C | ACHN renal | 29.2 µM
CSc1nc2c(=O)n(-c3ccccc3)c(=S)n(-c3ccccc3)c2s1 | ACHN renal | > 100 µM
CC1(C)CC(Nc2ccc(Nc3ccccc3)cc2)CC(C)(C)N1 | ACHN renal | 37.2 µM
COc1ccccc1-c1cc(=O)c2ccc(OC)c(OC)c2o1 | ACHN renal | > 100 µM
CCCN(CCSSCCNc1nc(N(C)O)nc(N(C)O)n1)c1nc(N(C)O)nc(N(C)O)n1 | ACHN renal | > 100 µM
Cc1cc2cn3c4cccnc4[nH]c(=O)c3c2cc1C | ACHN renal | 3.1 µM
O=C1CS/C(=N\S(=O)(=O)c2ccc(N3N=C4c5ccccc5CC4C3c3ccc(Cl)cc3)cc2)N1c1ccccc1 (stereo not drawn) | ACHN renal | 66.5 µM
Cc1nc(C(N)=S)sc1C(=O)C/C(=N/N)C(=O)Nc1ccc(Cl)cc1 | ACHN renal | > 100 µM

Exam item: Consider the compound COC(=O)C1C(OCc2ccccc2)C2CCC1(OC)C=C2C (stereo not drawn) and give its recorded TGI.
Marked response: > 100 µM

Exam item: Consider the compound CCOC(=O)C(C(=O)OCC)=C1NC2(c3ccccc3Nc3ccc(C)cc32)C(C(=O)OC)S1 (stereo not drawn) and give its recorded TGI.
Marked response: > 100 µM

Exam item: Consider the compound CCOC(=O)Cn1c(=O)c2cc(-c3ccccc3)cc3c(Cl)nc4c(OC)c(OC)cc1c4c32 and give its recorded TGI.
Marked response: > 65.5 µM

Exam item: Consider the compound CC(=O)/C=C(\O)c1[nH]c(C(=O)O)cc1C1CCN(Cc2ccccc2)C1=O (stereo not drawn) and give its recorded TGI.
Marked response: > 100 µM

Exam item: Consider the compound Clc1ncc(Cl)c(Cl)n1 and give its recorded TGI.
Marked response: 3.63 µM

These data points were gathered from PubChem BioAssay (NCI).
